I'd be grateful if you could share measured Tmax for these entries.
experiment: Maximum time required to achieve Cmax was determined in rat
Format: ADME, organism-based
settings: in vivo
Numbers only, in min.

Go through the list and state Tmax for each entry.
1. CCCC[C@H](NC(=O)OC(C(C)C)C(C)C)C(=O)C(=O)Nc1ccnn1C
2. CCCC[C@H](NC(=O)OC(C(C)C)C(C)C)C(=O)C(=O)Nc1nccs1
3. CCCC[C@H](NC(=O)OC(C(C)C)C(C)C)C(=O)C(=O)Nc1ccccn1

1: 38; 2: 10; 3: 15

Go through the list and state Tmax for each entry.
1. CCCC[C@H](NC(=O)OC(C(C)C)C(C)C)C(=O)C(=O)Nc1nncs1
2. CCCC[C@H](NC(=O)OC(C(C)C)C(C)C)C(=O)C(=O)Nc1cc[nH]n1

1: 38; 2: 15
